Biological target: Mch4 (Homo sapiens)
Sequence (Q92851 194-372 isoform Q92851-2): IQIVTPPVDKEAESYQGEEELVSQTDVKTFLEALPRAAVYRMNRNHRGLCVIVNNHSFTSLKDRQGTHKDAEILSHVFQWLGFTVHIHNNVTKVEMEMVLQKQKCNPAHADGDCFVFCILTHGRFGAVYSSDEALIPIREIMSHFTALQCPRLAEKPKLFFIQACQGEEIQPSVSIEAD
Sequence (Q92851 373-479 isoform Q92851-2): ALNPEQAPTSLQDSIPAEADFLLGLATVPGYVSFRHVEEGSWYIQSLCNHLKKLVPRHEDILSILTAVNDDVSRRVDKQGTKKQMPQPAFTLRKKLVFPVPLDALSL
Test: Continuous fluorometric assay of recombinant Mch4 protease activity (kinetic parameters)
Assay readout: pKi
Numbers only, as −log10 of the molar value.

Ask: Form: Entry = "CC(=O)N[C@@H](CC(=O)O)C(=O)N[C@@H](CCC(=O)O)C(=O)N[C@H](C(=O)N[C@H](C=O)CC(=O)O)C(C)C" | System = Mch4 (Homo sapiens) | pKi = ____
Result: 7.85

Numbers sourced from patent US6730779B2.
